Values were extracted from PubChem BioAssay (NCI).

Tested on: HS 578T breast
Experiment: NCI tumour cell line growth inhibition, 48 h
OBSERVED PROPERTY: TGI (µM)
One number for each entry, in µM.

Previously resolved entries follow.
MOLECULE | OBSERVED PROPERTY | QUANTITATIVE READOUT
COc1cc(-c2ccc(-c3ccc(C(=N)N)nc3)s2)cc(OC)c1OC | TGI | 8.52
N#CC1=C(N)Oc2c(ccc3ccccc23)C1c1ccccc1 (stereo unspecified) | TGI | 21.3
N#CC(C#N)=C/C=C(\Sc1c(Cl)c(Cl)nc(Cl)c1Cl)c1ccc(Cl)cc1 | TGI | 63.7
COc1cccc(/C=C/[N+](=O)[O-])c1 | TGI | 55.5

Fill in: HS 578T breast TGI for CCCC[C@H]1[C@@H](OCOc2ccccc2)COC(=O)N1[C@H](C)c1ccccc1 = 52.8

---

Tested on: NCI-H226 lung
Assay: NCI tumour cell line growth inhibition, 48 h
OBSERVED PROPERTY: TGI (µM)
Answers are plain numbers, in µM.

Before answering, review these 3 worked examples.
COMPOUND | TARGET SYSTEM | TGI [µM]
CC(C)C[C@H](NC(=O)Cn1ccc(NCc2ccccc2)cc1=O)B(O)O | NCI-H226 lung | 5.84
CCN(CC)CCC(=O)c1ccc(C)cc1 | NCI-H226 lung | 63.6
CN(C)CCCNc1ccc2c(=O)n(CCN(C)C)c(=O)n3c4ccccc4c(=O)c1c23 | NCI-H226 lung | 2.53

# ---- query compound ----
Sure, the documented TGI for C=C(C)[C@@H]1CC[C@]2(C(=O)O)CC[C@]3(C)[C@H](CC[C@@H]4[C@@]5(C)CCC(NC(=O)c6cccc(OC(C)=O)c6OC(C)=O)C(C)(C)[C@@H]5CC[C@]43C)[C@@H]12 (stereo not given in full) is 4.59

---

System: MDA-MB-231 breast
Assay: NCI tumour cell line growth inhibition, 48 h
OBSERVED PROPERTY: GI50

Take a look at these entries with their results.
COMPOUND | TARGET SYSTEM | GI50
C[C@]12CC[C@@H]3c4cc(-c5ccc(F)cc5)c(O)cc4CC[C@H]3[C@@H]1CC[C@@H]2O | MDA-MB-231 breast | 7.86 µM
O=C1CC(=O)N(C(=O)c2nn(-c3ccc(Cl)cc3)cc2O)N1 | MDA-MB-231 breast | 1.84 µM
C=C(NC(=O)C(=C)NC(=O)c1csc(C2=NC3c4csc(n4)C4NC(=O)c5csc(n5)C(C(C)(O)C(C)O)NC(=O)C5CSC(=N5)C(=CC)NC(=O)C(C(C)O)NC(=O)c5csc(n5)C3(CC2)NC(=O)C(C)NC(=O)C(=C)NC(=O)C(C)NC(=O)C(C(C)CC)NC2C=Cc3c(C(C)O)cc(nc3C2O)C(=O)OC4C)n1)C(N)=O (stereo not drawn) | MDA-MB-231 breast | 6.46 µM

Hi, could you look up GI50 for each item in my list?
1. COc1ccc(NC([Se])=NC23CC4CC(CC(C4)C2)C3)cc1
2. C=C(C)[C@@H]1CC[C@]2(C(=O)O)CC[C@]3(C)[C@H](CC[C@@H]4[C@@]5(C)CCC(NC(=O)c6cccc(OC(C)=O)c6OC(C)=O)C(C)(C)[C@@H]5CC[C@]43C)[C@@H]12 (stereo partly drawn)

Key:
1: 1.79 µM; 2: 1.09 µM

// input: 3 compounds below; output: GI50 for each
1. CCOC(=O)NC1C2CC(=O)OC(O2)C1OC(C)=O (stereo not drawn)
2. COC(=O)CC[C@]1(C)O[C@H]2[C@H]([C@@H](C)CCCC(C)=O)OC(=O)[C@@H]2C[C@H]1O
3. COc1cc2c(cc1OC)-c1ccc3cc4c(cc3c1N(CCCn1ccnc1)C2)OCO4

Key:
1. > 100 µM
2. > 100 µM
3. 3.34 µM
